Form field: MIC ATB in combination (one value per entry).
- Tested on: Citrobacter freundii (CFR) isolates
- assay_explanation: MIC of compounds alone and combined with antibacterials, broth microdilution (CLSI)
- Format: cell-based
- conditions_used: strain CFR UFR253; antibacterial combined with AF1 @ 4 μg/mL
- Experimental: Method 2: MIC of Compounds Alone and Combined with Antibacterials Against Bacterial Isolates. Compounds of the present invention were assessed against genotyped bacterial strains (Table 3, 4) alone or in combination with an antibacterial (Table 2). […] The MIC of the compounds was defined as the lowest concentration of said compounds that prevented bacterial growth as read by visual inspection. […]
Record the value in µg/mL, omitting the unit from your answer.

Exam item: Endpoint output: MIC ATB in combination of CC(C)(O/N=C(\C(=O)N[C@@H]1C(=O)N2C(C(=O)[O-])=C(C[n+]3ccccc3)CS[C@H]12)c1csc(N)n1)C(=O)O [CAZ, Ceftazidime] . Value?
Marked response: 4

Exam item: Also, C=CC1=C(C(=O)O)N2C(=O)[C@@H](NC(=O)/C(=N\OCC(=O)O)c3csc(N)n3)[C@H]2SC1 [FIX, Cefixime] please.
Marked response: 32

Exam item: Also, CO/N=C(\C(=O)N[C@@H]1C(=O)N2C(C(=O)O)=C(COC(N)=O)CS[C@H]12)c1ccco1 [FUR, Cefuroxime] please.
Marked response: 4

Exam item: Also, CC1(C)S[C@@H]2[C@H](NC(=O)[C@H](N)c3ccc(O)cc3)C(=O)N2[C@H]1C(=O)O [AMX, Amoxicillin] please.
Marked response: 4
